System: Ba/F3 cells expressing EGFR Del19/C797S (EGFR DC)
protocol: Proliferation inhibitory activity, Ba/F3 cells expressing EGFR Del19/C797S (CellTiter-Glo)
Assay type: cell-based
experimental parameters: Mus musculus, BaF3, 72 hours of compound treatment
Listing of entries alongside the reported GI50.

CS(=O)(=O)c1cc(Nc2cc(N3OCC[C@@H]3c3cc(F)cc(F)c3)ncn2)cc(N2CCC(N3CCOCC3)CC2)c1 :: 50 to 500 nM
Cn1cc(Nc2cc(N3OCC[C@@H]3c3ccccc3)ncn2)cn1 :: 50 to 500 nM
COc1cc(N2CCC(N(C)C)CC2)ccc1Nc1cc(N2OCC[C@@H]2c2cc(F)cc(F)c2)ncn1 :: < 50 nM
COc1cc(N2CCN(C3CCN(C)CC3)C[C@H]2C)ccc1Nc1cc(N2OCC[C@@H]2c2ccccc2)ncn1 :: < 50 nM
CN1CCN(C2CCN(c3ccc(Nc4cc(N5OCC[C@@H]5c5cc(F)cc(F)c5)ncn4)cc3S(C)(=O)=O)CC2)CC1 :: 50 to 500 nM

Ask: // returns reported GI50 for input CN1CCN(c2cc(OCC(F)(F)F)c(Nc3cc(N4OCC[C@@H]4c4ccccc4)ncn3)cc2-c2cnn(C)c2)CC1
Reply: < 50 nM

Ask: Also COc1cc(N2CCC(N3CCN(C)CC3)CC2)c(C(C)=O)cc1Nc1cc(N2OCC[C@@H]2c2cccc(F)c2F)ncn1 , if possible.
Reply: < 50 nM

====

System: Ba/F3 cells expressing EGFR Del19/C797S (EGFR DC)
protocol: Proliferation inhibitory activity, Ba/F3 cells expressing EGFR Del19/C797S (CellTiter-Glo)
Assay type: cell-based
experimental parameters: Mus musculus, BaF3, 72 hours of compound treatment
Listing of entries alongside the reported GI50.

These solved cases illustrate the format of a correct answer.
Cc1cc(Nc2cc(N3OCC[C@@H]3c3cccc(F)c3F)ncn2)ccc1N1CCC(N2CCN(C)CC2)CC1 [Example 126] :: < 50 nM
Cc1cc(N2CCOCC2)ccc1Nc1cc(N2OCC[C@@H]2c2ccccc2)ncn1 [Example 108] :: < 50 nM
COc1cc(N2CCC(N3CCN(C)CC3)CC2)ccc1Nc1cc(N2OCC[C@@H]2c2ccc(Cl)c(F)c2)ncn1 [Example 129] :: < 50 nM

Could you now consider this next compound?
Ask: // returns reported GI50 for input CN1CCN(c2ccc(Nc3cc(N4Oc5ccccc5C4c4ccccc4)ncn3)cc2)CC1 (stereo not shown) [Example 229]
Reply: 50 to 500 nM

====

tested on: EGFR (L861Q) (Homo sapiens, UniProt P00533, L861Q)
Sequence (P00533 25-1210 L861Q): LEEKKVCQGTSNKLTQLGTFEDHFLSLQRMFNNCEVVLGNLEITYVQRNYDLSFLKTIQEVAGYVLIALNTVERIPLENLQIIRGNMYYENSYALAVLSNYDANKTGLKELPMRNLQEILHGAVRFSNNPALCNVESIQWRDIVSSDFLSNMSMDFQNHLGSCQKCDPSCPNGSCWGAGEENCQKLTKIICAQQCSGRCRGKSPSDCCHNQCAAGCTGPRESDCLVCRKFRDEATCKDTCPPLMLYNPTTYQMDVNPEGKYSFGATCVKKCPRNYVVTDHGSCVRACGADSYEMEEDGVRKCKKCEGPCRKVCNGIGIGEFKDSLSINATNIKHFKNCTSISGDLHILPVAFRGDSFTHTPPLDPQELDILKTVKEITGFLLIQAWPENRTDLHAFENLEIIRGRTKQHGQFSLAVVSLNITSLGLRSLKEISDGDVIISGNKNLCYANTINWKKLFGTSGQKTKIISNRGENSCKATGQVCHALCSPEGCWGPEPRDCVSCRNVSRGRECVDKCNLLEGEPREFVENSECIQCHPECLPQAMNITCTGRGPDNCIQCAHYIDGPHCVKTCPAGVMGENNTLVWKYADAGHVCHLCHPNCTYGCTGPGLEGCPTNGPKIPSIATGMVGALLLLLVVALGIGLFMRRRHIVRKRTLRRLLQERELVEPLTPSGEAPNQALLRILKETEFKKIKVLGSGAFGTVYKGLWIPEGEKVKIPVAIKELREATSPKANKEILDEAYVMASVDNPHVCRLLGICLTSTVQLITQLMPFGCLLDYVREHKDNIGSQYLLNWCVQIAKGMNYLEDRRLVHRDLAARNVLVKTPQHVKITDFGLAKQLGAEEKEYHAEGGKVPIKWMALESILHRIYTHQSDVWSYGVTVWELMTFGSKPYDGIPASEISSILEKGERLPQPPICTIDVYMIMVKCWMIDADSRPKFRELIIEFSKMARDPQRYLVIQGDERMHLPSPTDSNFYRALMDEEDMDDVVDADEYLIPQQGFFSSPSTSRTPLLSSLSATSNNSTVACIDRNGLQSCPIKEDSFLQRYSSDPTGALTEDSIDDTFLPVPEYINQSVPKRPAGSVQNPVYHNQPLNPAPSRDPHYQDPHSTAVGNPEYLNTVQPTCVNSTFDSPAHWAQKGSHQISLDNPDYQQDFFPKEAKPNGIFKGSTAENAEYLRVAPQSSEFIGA
protocol: EGFR-family mutant enzyme activity (Reaction Biology)
pIC50: −log10 of the molar value.
readout label: pIC50

Ask: // returns reported pIC50 for input COc1cc(N2CCC(N3CCN(C)CC3)CC2)ccc1Nc1cc(N2OCC[C@@H]2c2ccc(F)cc2F)ncn1 [Example 34]
Reply: > 9.30

====

Listing of entries alongside the reported GI50.
Test system: Ba/F3 cells expressing EGFR Del19/C797S (EGFR DC)
protocol: Proliferation inhibitory activity, Ba/F3 cells expressing EGFR Del19/C797S (CellTiter-Glo)
Assay type: cell-based
experimental parameters: Mus musculus, BaF3, 72 hours of compound treatment

These solved cases illustrate the format of a correct answer.
CCC(=O)Nc1cc(Nc2cc(N3OCC[C@@H]3c3cc(F)cc(F)c3)ncn2)c(OC)cc1N1CCC(N2CCC(N(C)C)CC2)CC1 :: < 50 nM
COc1cc(N2CCC(N(C)C)CC2)ccc1Nc1cc(N2OCC[C@@H]2c2ccccc2)ncn1 :: < 50 nM
COc1cc(P2(=O)CCN(C3CC3)CC2)ccc1Nc1cc(N2OCC[C@@H]2c2ccccc2)ncn1 :: 50 to 500 nM
CN1CCN(C2CCN(c3cc(Nc4cc(N5OCC[C@@H]5c5cc(F)cc(F)c5)ncn4)cc(S(C)(=O)=O)c3)CC2)CC1 :: 50 to 500 nM
CCC(=O)Nc1cc(Nc2cc(N3OCC[C@@H]3c3cc(F)cc(F)c3)ncn2)c(OC)cc1N1CCC(N2CCN(C3CC3)CC2)CC1 :: < 50 nM

Ask: // returns reported GI50 for input CCN(CC)C1CCN(c2ccc(Nc3cc(N4OCC[C@@H]4c4ccccc4)ncn3)c(OC)c2)CC1
Reply: < 50 nM

Ask: Also COc1cc(N2CCSCC2)ccc1Nc1cc(N2OCC[C@@H]2c2ccccc2)ncn1 , if possible.
Reply: < 50 nM

Ask: Also CC(=O)N1CCN(c2ccc(Nc3cc(N4OCC[C@@H]4c4ccccc4)ncn3)cc2)CC1 , if possible.
Reply: < 50 nM

====

Listing of entries alongside the reported GI50.
Test system: Ba/F3 cells expressing EGFR L858R/C797S (EGFR LC)
protocol: Proliferation inhibitory activity, Ba/F3 cells expressing EGFR L858R/C797S (CellTiter-Glo)
Format: cell-based
experimental parameters: Mus musculus, BaF3, 72 hours of compound treatment

Ask: Give the reported GI50 for COc1cc(N2CCC(N3CCN(C)CC3)CC2)c(-c2cnn(C)c2)cc1Nc1cc(N2OCC[C@@H]2c2cc(F)cc(F)c2)ncn1 (system: Ba/F3 cells expressing EGFR L858R/C797S (EGFR LC)).
Reply: < 50 nM

Ask: Also CN1CCN(c2cc(Nc3cc(N4OCC[C@@H]4c4cc(F)cc(F)c4)ncn3)cc(S(C)(=O)=O)c2)CC1 , if possible.
Reply: 50 to 500 nM

Ask: Also COc1cc(N2CCC(N3CCN(C4CC4)CC3)CC2)ccc1Nc1cc(N2OCC[C@@H]2c2cc(F)cc(F)c2)ncn1 , if possible.
Reply: 50 to 500 nM

Ask: Also CN1CCN(c2ccc(Nc3cc(N4OCC[C@@H]4c4ccccc4)ncn3)cc2)CC1 , if possible.
Reply: < 50 nM

Ask: Also COc1cc(Nc2cc(N3OCC[C@@H]3c3ccccc3)ncn2)ccc1N1CCN(C2CCN(C)CC2)CC1 , if possible.
Reply: < 50 nM

Ask: Also COc1cc(N2CCC(N3CCN(C)CC3)CC2)c(Cl)cc1Nc1cc(N2OCC[C@@H]2c2ccccc2)ncn1 , if possible.
Reply: < 50 nM

Ask: Also COc1cc(Nc2cc(N3OCC[C@@H]3c3cccc(F)c3F)ncn2)ccc1N1CCC(N2CCN(C)CC2)CC1 , if possible.
Reply: < 50 nM

Ask: Also CN1CCN(C2CCN(c3cc(Nc4cc(N5OCC[C@@H]5c5cc(F)cc(F)c5)ncn4)cc(S(C)(=O)=O)c3)CC2)CC1 , if possible.
Reply: 50 to 500 nM

Ask: Also COc1cc(N2CCC(N3CCN(C)CC3)CC2)ccc1Nc1cc(N2OCC[C@@H]2c2ccccc2)ncn1 , if possible.
Reply: < 50 nM

Ask: Also COc1cc(N2CCOCC2)c(-c2cnn(C)c2)cc1Nc1cc(N2OCC[C@@H]2c2cc(F)cc(F)c2)ncn1 , if possible.
Reply: 50 to 500 nM

Ask: Also COc1cc(N2CCC(N3CCC(N(C)C)CC3)CC2)c(-c2cnn(C)c2)cc1Nc1cc(N2OCC[C@@H]2c2cc(F)cc(F)c2)ncn1 , if possible.
Reply: 50 to 500 nM

====

Tested on: Ba/F3 cells expressing EGFR Del19/C797S (EGFR DC)
protocol: Proliferation inhibitory activity, Ba/F3 cells expressing EGFR Del19/C797S (CellTiter-Glo)
Assay type: cell-based
experimental parameters: Mus musculus, BaF3, 72 hours of compound treatment
readout label: GI50

COc1cc(SCCN(C)C)ccc1Nc1cc(N2OCC[C@@H]2c2ccccc2)ncn1 [Example 65] :: < 50 nM
COc1cc(N2CCC(N3CCCC3)CC2)ccc1Nc1cc(N2OCC[C@@H]2c2ccccc2)ncn1 [Example 62] :: < 50 nM
CCN1CCN(C2CCN(c3ccc(Nc4cc(N5OCC[C@@H]5c5cccc(F)c5F)ncn4)c(OC)c3)CC2)CC1 [Example 207] :: < 50 nM
COc1cc(N2CCC(N3CCN(C)CC3)CC2)ccc1Nc1cc(N2OCC[C@@H]2c2cc(F)cc(C#N)c2)ncn1 [Example 170] :: 50 to 500 nM

Ask: // returns reported GI50 for input COc1cc(N2CCC(N3CCN4CCCC4C3)CC2)c(NC(=O)CCCl)cc1Nc1cc(N2OCC[C@@H]2c2cc(F)cc(F)c2)ncn1 (stereo partly shown) [Example 86]
Reply: < 50 nM

Ask: Also COc1cc(N2CCN(C)CC2)c(-c2cnn(C)c2)nc1Nc1cc(N2OCC[C@@H]2c2cccc(F)c2F)ncn1 [Example 201] , if possible.
Reply: < 50 nM

Ask: Also COc1cc(Nc2cc(N3OCC[C@@H]3c3cccc(Cl)c3F)ncn2)ccc1N1CCC(N2CCN(C)CC2)CC1 [Example 125] , if possible.
Reply: < 50 nM

Ask: Also COc1cc(N2CCC(N3CCN(C)CC3)CC2)c(C)cc1Nc1cc(N2OCC[C@@H]2c2ccccc2)ncn1 [Example 114] , if possible.
Reply: < 50 nM

Ask: Also CN1CCN(c2ccc(Nc3cc(N4OCC[C@H]4c4ccccc4)ncn3)cc2)CC1 [Example 2] , if possible.
Reply: 50 to 500 nM

Ask: Also COc1cc(N2CCC(N3CCN(C)CC3)CC2)ccc1Nc1cc(N2OCC[C@@H]2c2ccc(F)c(Cl)c2)ncn1 [Example 31] , if possible.
Reply: < 50 nM

Numbers sourced from patent US12534457B2.
